Overview of reported species across a group of compounds:
- System: BiP NBD (Homo sapiens)
- Test summary: Global kinetic fit (MCMC) of four NMR data sets (E1+E2, E1 only, E2 only, no recycling): functional cycle kinetic parameters
- Assay type: biochemical
- Parameters: His6 (N, cleaved yes); made in house; host or cells: E. coli BL21-(DE3)-Lemo, pET28a vector
- Test settings: Supplementary Fig 10a, time 23 min
Answer in µM, number only, no unit symbol.

A selection of reference data follows.
Can you look up the measured species of O=P(O)(O)O[C@H]1O[C@H](CO)[C@@H](O)[C@H](O)[C@H]1O [glucose-1-p] for me?
4009

And the next one, C=C(OP(=O)(O)O)C(=O)O [PEP] ?
20991

Further cases:
Query: species; subject: Nc1ncnc2c1ncn2[C@@H]1O[C@H](COP(=O)(O)OP(=O)(O)OP(=O)(O)O)[C@@H](O)[C@H]1O [ATP]
4899

Same question, CC(=O)C(=O)O [Pyruvate] this time
4002

Thanks! And O=P(O)(O)O [Pi] ?
25

----------
- System: BiP NBD (Homo sapiens)
- Test summary: Global kinetic fit (MCMC) of four NMR data sets (E1+E2, E1 only, E2 only, no recycling): functional cycle kinetic parameters
- Type: biochemical
- Design: His6 (N, cleaved yes); made in house; host or cells: E. coli BL21-(DE3)-Lemo, pET28a vector
- Test settings: reactions 4, 5: one ligand leaving NBD·ADP·Pi, the other stays bound; standard buffer, T = 37 °C
Endpoint name: Kd
Please format your answer as a value with the unit trailing.

Would you mind telling me what Kd value was observed for "O=P(O)(O)O" ?
235 µM

----------
Entries and their species
- System: BiP NBD (Homo sapiens, UniProt P11021)
- Sequence (P11021 19-406): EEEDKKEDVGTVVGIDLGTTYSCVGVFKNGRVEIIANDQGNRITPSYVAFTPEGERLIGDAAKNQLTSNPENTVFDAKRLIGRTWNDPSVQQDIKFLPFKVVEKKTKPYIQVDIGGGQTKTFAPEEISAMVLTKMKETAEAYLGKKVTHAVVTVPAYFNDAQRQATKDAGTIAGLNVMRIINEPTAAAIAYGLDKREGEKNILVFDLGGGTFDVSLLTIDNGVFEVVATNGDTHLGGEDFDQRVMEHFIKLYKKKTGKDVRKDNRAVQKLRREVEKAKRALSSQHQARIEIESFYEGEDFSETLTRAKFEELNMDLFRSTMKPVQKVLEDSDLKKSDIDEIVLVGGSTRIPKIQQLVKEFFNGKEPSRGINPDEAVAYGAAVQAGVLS
- Test summary: Global kinetic fit (MCMC) of four NMR data sets (E1+E2, E1 only, E2 only, no recycling): functional cycle kinetic parameters
- Format: biochemical
- Set-up: His6 (N, cleaved yes); made in house; host or cells: E. coli BL21-(DE3)-Lemo, pET28a vector
- Test settings: Supplementary Fig 10b, time 22 min
Report the figure in µM without appending any unit label.

As a guide, the following entries are already answered.
API: value(readout=species, system=BiP NBD (Homo sapiens, UniProt P11021)) for record "C=C(OP(=O)(O)O)C(=O)O"
7745

Another compound: "O=P(O)(O)O"
2255

Please give the result for "Nc1ncnc2c1ncn2[C@@H]1O[C@H](COP(=O)(O)OP(=O)(O)OP(=O)(O)O)[C@@H](O)[C@H]1O" too.
4989

Consider the additional compound presented here.
Give species (BiP NBD (Homo sapiens, UniProt P11021)) of the following compound: CC(=O)C(=O)O [Pyruvate]
2255

----------
- System: BiP NBD (Homo sapiens)
- Test summary: Global kinetic fit (MCMC) of four NMR data sets (E1+E2, E1 only, E2 only, no recycling): functional cycle kinetic parameters
- Format: biochemical
- Parameters: His6 (N, cleaved yes); made in house; host or cells: E. coli BL21-(DE3)-Lemo, pET28a vector
- Test settings: Supplementary Fig 10a, time 41 min
Values of species strictly less than 6000 µM map to Met, and values of at least 6000 µM map to Not met.

Field: example entries. Status: answers known.
is_below(species, 6000 µM) for CC(=O)C(=O)O [Pyruvate] ?
Not met

Thanks! And O=P(O)(O)O [Pi] ?
Met

How about this molecule: O=P(O)(O)O[C@H]1O[C@H](CO)[C@@H](O)[C@H](O)[C@H]1O [glucose-1-p]
Not met

Quick one: C=C(OP(=O)(O)O)C(=O)O [PEP]
Not met

Further cases:
Strictly below 6000 µM: is that where species of Nc1ncnc2c1ncn2[C@@H]1O[C@H](COP(=O)(O)OP(=O)(O)OP(=O)(O)O)[C@@H](O)[C@H]1O [ATP] sits?
Met

The origin of these recorded values is paper PMC12126525.
